Biological target: T1, Fc tagged human TNFR1 (Sino Biological) (human, UniProt P19438 22-211, limits assumed)
T1 construct: Bought reagent; also called hTNFR1; hTNFR1-Fc; not shown: Fc tag of the bought protein
T1 sequence (looked up): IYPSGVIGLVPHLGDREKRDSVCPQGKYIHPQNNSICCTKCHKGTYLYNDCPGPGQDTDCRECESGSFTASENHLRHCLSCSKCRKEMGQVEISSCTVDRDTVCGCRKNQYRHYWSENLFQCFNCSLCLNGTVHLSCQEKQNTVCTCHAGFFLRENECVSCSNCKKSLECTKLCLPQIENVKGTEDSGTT
Test: SPR, Biacore T200 single cycle kinetics, receptor-Fc captured on Protein A chip, TNF 1.67-15 nM
TEST_READOUT: log10 of Kd (log10 of the value in nM)

INSERT INTO assay_data (binder, observed_value) VALUES
  ('TNF variant C9 (ligand, Human TNF variant from Library 2, AVTYQT at positions 84-89; not shown: C-terminal FLAG tag and His6 tag from vector pANT65) VRSSSRTPSDKPVAHVVANPQAEGQLQWINGRANALLANGVELRDNQLVVPSEGLYLIYSQVLFKGQGCPSTHVLLTHTISRIAVTYQTKVNLLSAIKSPCQRETPEGAEAKPWYEPIYLGGVFQLEKGDRLSAEINRPDYLDDADSGQVYFGIIAL', -1.61),
  ('TNF mutein B5 (ligand, Human TNF mutein, TGTYVD at positions 84-89; not shown: C-terminal FLAG tag and His6 tag from vector pANT65) VHSSSRTPSDKPVAHVVANPQAEGQLQWLNRRANALLANGVELRDNQLVVPSEGLYLIYSQVLFKGQGCPSTHVLLTHTISRITGTYVDKVNLLSAIKSPCQRETPEGAEAKPWYEPIYLGGVFQLEKGDRLSAEINRPDYLDFAESGQVYFGIIAL', -1.70),
  ('TNF mutein B4 (ligand, Human TNF mutein, SESHDG at positions 84-89; not shown: C-terminal FLAG tag and His6 tag from vector pANT65) VRSSSHTPSDKPVAHVVANPQAEGQLQWLNRRANALLANGVELRDNQLVVPSEGLYLIYSQVLFKGQGCPSTHVLLTHTISRISESHDGKVNLLSAIKSPCQRETPEGAEAKPWYEPIYLGGVFQLEKGDRLSAEINRPDYLDFAESGQVYFGIIAL', -1.71),
  ('TNF mutein C8 (ligand, Human TNF mutein, SQTHDG at positions 84-89; not shown: C-terminal FLAG tag and His6 tag from vector pANT65) VRSSSRTPSDKPVAHVVANPQAEGQLQWLNRRANALLANGVELRDNQLVVPSEGLYLIYSQVLFKGQGCPSTHVLLTHTISRISQTHDGKVNLLSAIKSPCQRETPEGAEAKPWYEPIYLGGVFQLEKGDRLSAEINRPDYLDFAESGQVYFGIIAL', -0.73),
  ('TNF mutein F3 (ligand, Human TNF mutein, TTTYRL at positions 84-89; not shown: C-terminal FLAG tag and His6 tag from vector pANT65) VRSSSRTPSDKPVAHVVANPQAEGQLQWLNRRANALLANGVELRDNQLVVPSEGLYLIYSQVLFKGQGCPSTHVLLTHTISRITTTYRLKVNLLSAIKSPCQRETPEGAEAKPWYEPIYLGGVFQLEKGDRLSAEINRPDYLDFAESGQVYFGIVAL', -0.20),
  ('TNF mutein C4 (ligand, Human TNF mutein, SHSVEG at positions 84-89; not shown: C-terminal FLAG tag and His6 tag from vector pANT65) VRSSSRTPSDKPVAHVVANPQAEGQLQWLNRRANALLANGVELRDNQLVVPSEGLYLIYSQVLFKGQGCPSTHVLLTHTISRISHSVEGKVNLLSAIKSPCQRETPEGAEAKPWYEPIYLGGVFQLEKGDRLSAEINRPDYLDFAESGQVYFGIIAL', -1.89),
  ('TNF mutein B6 (ligand, Human TNF mutein, TGTYSY at positions 84-89; not shown: C-terminal FLAG tag and His6 tag from vector pANT65) VRSSSRTPSDKPVAHVVANPQAEGQLQWLNRRANALLANGVELRDNQLVVPSEGLYLIYSQVLFKGQGCPSTHVLLTHTISRITGTYSYKVNLLSAIKSPCQRETPEGAEAKPWYEPIYLGGVFQLEKGDRLSAEINRPDYLDFAESGQVYFGIIAL', -1.77);
